Measured Ki values are reported for all entries that follow.
Target: PIM1 (Homo sapiens (Human))
Assay: biochemical
Assay type: biochemical
Conditions: 10 μM ATP, 90 min, room temperature; read-out: PIM1 LC3K (KI)
Method: A fluorescent-labeled Pim-specific peptide substrate, was custom synthesized by American Peptide Company (Sunnyvale, Calif.). Reaction Buffer contained 10 mM HEPES, pH 7.2, 10 mM MgCl2, 0.01% Tween 20, 2 mM DTT. […] PIM reactions were carried out in a final volume of 10 μL per well in a 384-well plate. […] Substrate conversion was calculated from the electropherogram using HTS Well Analyzer software (Caliper Life Sciences, Hopkinton, Mass.). Ki values for the test compound were calculated.

Examples from the recorded data:
[
  {
    "molecule": "Cn1cc(-c2cc3c(cn2)cnn3-c2cccc(N3CC(O)C3)n2)cn1",
    "target-of-assay": "PIM1 (Homo sapiens (Human))",
    "Ki": "2.52 nM"
  },
  {
    "molecule": "Cc1cncc(-c2cc3c(cn2)cnn3-c2ccc(C)c(N3C[C@@H](N)CCC3=O)n2)n1",
    "target-of-assay": "PIM1 (Homo sapiens (Human))",
    "Ki": "26.2 nM"
  },
  {
    "molecule": "CCn1cc(-c2cc3c(cn2)cnn3-c2cccc(N3CC[C@@H](O)C3)n2)cn1",
    "target-of-assay": "PIM1 (Homo sapiens (Human))",
    "Ki": "7.22 nM"
  },
  {
    "molecule": "Cc1cncc(-c2cc3c(cn2)cnn3-c2ccc(CO)c(N3CCC[C@H](N)C3)n2)n1",
    "target-of-assay": "PIM1 (Homo sapiens (Human))",
    "Ki": "0.06 nM"
  }
]

Input: Look up Ki for this molecule: Cc1cncc(-c2cc3c(cn2)cnn3-c2cccc(OC3CCCC(N)C3)n2)n1 (centres unmarked) [Compound 310]
Output: 1.64 nM

Input: And for Cc1cncc(-c2cc3c(cn2)cnn3-c2cccc(N3CCC(N)CC3)n2)n1 ?
Output: 0.243 nM

Input: Another: Cc1cncc(-c2cc3c(cn2)cnn3-c2ccc(C3CC3)c(N3CCCNCC3)n2)n1
Output: 0.055 nM

Input: Subsequent entry: OC1CN(c2cccc(-n3ncc4cnc(-c5cnn(CC(F)(F)F)c5)cc43)n2)C1
Output: 0.876 nM

* * *

Target: PIM3 (Homo sapiens (Human))
metric-name: log10 of Ki (log10 of the value in nM)
Values are log10 of Ki in nM.

[
  {
    "compound": "C[C@]1(O)CNCCN(c2cccc(-n3ncc4cnc(-c5cnn(CC(F)(F)F)c5)cc43)n2)C1 [Compound 248]",
    "log10 of Ki": 0.53
  },
  {
    "compound": "Cc1cncc(-c2cc3c(cn2)cnn3-c2cccc(N3CCNC(C)CC3)n2)n1 (stereo not shown) [Compound 184]",
    "log10 of Ki": -1.12
  },
  {
    "compound": "CCn1cc(-c2cc3c(cn2)cnn3-c2cncc(N3CCCNCC3)n2)cn1 [Compound 163]",
    "log10 of Ki": 0.47
  },
  {
    "compound": "Cn1ncc(-c2cc3c(cn2)cnn3-c2ccccc2F)c1Cl [Compound 309]",
    "log10 of Ki": 2.97
  }
]

Input: Entry under review: N[C@H]1CCC[C@@H]1Oc1cncc(-c2cc3c(cn2)cnn3-c2ccccn2)n1 [Compound 304] . Reported log10 of Ki?
Output: -1.15

Input: Check NC(=O)Cn1cc(-c2cc3c(cn2)cnn3-c2cccc(N3CCCNCC3)n2)cn1 [Compound 159] too.
Output: -0.73

Input: One more compound: Cc1cncc(-c2cc3c(cn2)cnn3-c2ccc(C)c(N3C[C@@H](N)CCC3=O)n2)n1 [Compound 221]
Output: 1.37

* * *

Target: PIM1 (Homo sapiens (Human), UniProt P11309)
Sequence (P11309 whole entry): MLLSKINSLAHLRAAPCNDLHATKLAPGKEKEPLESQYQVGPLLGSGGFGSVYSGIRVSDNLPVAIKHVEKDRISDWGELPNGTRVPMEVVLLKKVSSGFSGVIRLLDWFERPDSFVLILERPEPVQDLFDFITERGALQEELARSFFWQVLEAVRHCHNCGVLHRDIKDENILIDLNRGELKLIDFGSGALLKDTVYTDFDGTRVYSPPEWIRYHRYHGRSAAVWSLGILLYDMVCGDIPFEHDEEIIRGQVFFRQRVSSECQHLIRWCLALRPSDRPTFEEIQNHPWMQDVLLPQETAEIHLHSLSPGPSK
Test: biochemical
Assay type: biochemical
Conditions: 10 μM ATP, 90 min, room temperature; read-out: PIM1 LC3K (KI)
metric-name: Ki (nM)
Respond with the bare value in nM.

Consider the worked cases shown below.
[
  {
    "compound-smiles": "Cc1cncc(-c2cc3c(cn2)cnn3-c2cccc(N3CCC[C@H](O)C3)n2)n1",
    "obs-value": 0.419
  },
  {
    "compound-smiles": "Cc1cc(-c2cc3c(cn2)cnn3-c2cccc(N3CCNCC3)n2)sn1",
    "obs-value": 0.426
  },
  {
    "compound-smiles": "Cc1cncc(-c2cc3c(cn2)cnn3-c2cccc(N3CCCN(C4COC4)CC3)n2)n1",
    "obs-value": 1.51
  },
  {
    "compound-smiles": "Cc1cncc(-c2cc3c(cn2)cnn3-c2cccc(N3CCC4(CNC4)C3)n2)n1",
    "obs-value": 0.385
  },
  {
    "compound-smiles": "Cc1cncc(-c2cc3c(cn2)cnn3-c2cccc(N3CCC4(CCNC4)CC3)n2)n1",
    "obs-value": 1.21
  },
  {
    "compound-smiles": "FC(F)n1cc(-c2cc3c(cn2)cnn3-c2cccc(N3CCCNCC3)n2)cn1",
    "obs-value": 1.21
  }
]

Input: # value lookup — system PIM1 (Homo sapiens (Human), UniProt P11309), readout Ki, item CCn1cc(-c2cc3c(cn2)cnn3-c2cccc(N3CC[C@H](N)C3)n2)cn1
Output: 2.12

Input: Now consider c1cc(N2CCCNCC2)nc(-n2ncc3cnc(-c4cncnc4)cc32)c1 and answer again.
Output: 11.3

* * *

Target: PIM1 (Homo sapiens (Human), UniProt P11309)
Assay: biochemical
Format: biochemical
Conditions: 10 μM ATP, 90 min, room temperature; read-out: PIM1 LC3K (KI)
Overview of recorded pKi for various compounds
Give only the number. pKi is defined as minus log10 of concentration in molar units.

[
  {
    "compound": "Cc1cncc(-c2cc3c(cn2)cnn3-c2cccc(C3CNCCC3(F)F)n2)n1 (stereo not shown) [Compound 259]",
    "pKi": 10.28
  }
]

Input: Recorded pKi for CC(C)(C)c1cncc(-c2cc3c(cn2)cnn3-c2cccc(N3CCNCC3)n2)n1 with PIM1 (Homo sapiens (Human), UniProt P11309), please?
Output: 7.69

Input: Another compound to check: c1cc(N2CCCNCC2)nc(-n2ncc3cnc(-c4cnn(C5CC5)c4)cc32)c1
Output: 10.16

Input: Cc1cncc(-c2cc3c(cn2)cnn3-c2cccc(C3(O)CCCNC3)n2)n1 (stereo not shown) ?
Output: 9.04

Input: Another: CC(C)(C)n1cc(-c2cc3c(cn2)cnn3-c2cccc(N3CCCNCC3)n2)cn1
Output: 9.44

Input: Same read-out for Cc1cncc(-c2cc3c(cn2)cnn3-c2cccc(OC3CCCC(N)C3)n2)n1 (stereo not shown) [Compound 311] ?
Output: 10.16

* * *

# Lookup of reported Ki keyed by entry
Target: PIM2 (Homo sapiens (Human), UniProt Q9P1W9)
Sequence (Q9P1W9 whole entry): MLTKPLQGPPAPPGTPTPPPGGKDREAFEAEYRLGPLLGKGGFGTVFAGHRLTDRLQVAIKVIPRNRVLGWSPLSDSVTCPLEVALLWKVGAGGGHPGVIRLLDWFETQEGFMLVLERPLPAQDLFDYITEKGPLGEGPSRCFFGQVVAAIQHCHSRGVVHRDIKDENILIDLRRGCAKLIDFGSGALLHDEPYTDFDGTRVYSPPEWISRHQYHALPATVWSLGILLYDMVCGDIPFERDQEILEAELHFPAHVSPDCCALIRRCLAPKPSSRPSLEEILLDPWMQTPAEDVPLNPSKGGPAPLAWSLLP
Where a name gives a salt, the structure may show the parent alone.
Units required after the number.

These recorded examples may help you get a feel for the data.
[
  {
    "compound": "CCn1cc(-c2cc3c(cn2)cnn3-c2cccc(N3CCN[C@@H](C)C3)n2)cn1",
    "obs-value": "7.36 nM"
  },
  {
    "compound": "CCn1cc(-c2cc3c(cn2)cnn3-c2cccc(N3CCNCC3)n2)cn1",
    "obs-value": "14.6 nM"
  },
  {
    "compound": "Cn1cc(-c2cc3c(cn2)cnn3-c2cccc(N3CC4(CNC4)C3)n2)cn1",
    "obs-value": "149 nM"
  },
  {
    "compound": "Cc1cncc(-c2cc3c(cn2)cnn3-c2ccc(Cl)c(N3CCC[C@H](N)C3)n2)n1",
    "obs-value": "0.317 nM"
  },
  {
    "compound": "CC(C)c1cncc(-c2cc3c(cn2)cnn3-c2cccc(N3CCC[C@H](N)C3)n2)c1",
    "obs-value": "1.93 nM"
  },
  {
    "compound": "OCCOc1cncc(-c2cc3c(cn2)cnn3-c2cccc(N3CCNCC3)n2)n1 [Compound 278, dihydrochloride]",
    "obs-value": "2.62 nM"
  },
  {
    "compound": "Cc1cncc(-c2cc3c(cn2)cnn3-c2cn(C)c(=O)c(N3CCC[C@H](N)C3)n2)n1",
    "obs-value": "45.5 nM"
  },
  {
    "compound": "CCc1cncc(-c2cc3c(cn2)cnn3-c2cccc(N3CCNCC3)n2)n1",
    "obs-value": "0.678 nM"
  }
]

Input: Please look up its Ki: Cc1cncc(-c2cc3c(cn2)cnn3-c2cccc(N3CCNC(C)C3)n2)n1 (centres unmarked)
Output: 1.79 nM

Input: Follow-up item: C#Cc1cncc(-c2cc3c(cn2)cnn3-c2cccc(N3CCNCC3)n2)n1
Output: 1.72 nM

Input: Next compound up: Cc1cncc(-c2cc3c(cn2)cnn3-c2cccc(N3CCCC4(CN(C=O)C4)C3)n2)n1
Output: 40.9 nM

Input: Now try Cc1ccc(-n2ncc3cnc(-c4cnn(CC(F)(F)F)c4)cc32)nc1N1CCNC[C@H](O)C1 (single isomer, unassigned) .
Output: 6.51 nM

Input: Same thing, different compound: OCCCc1cncc(-c2cc3c(cn2)cnn3-c2cccc(N3CCNCC3)n2)n1
Output: 0.446 nM

Input: One more compound: COC1(c2cccc(-n3ncc4cnc(-c5cncc(C)n5)cc43)n2)CCCNC1 (centres unmarked)
Output: 1.43 nM

Input: Please answer likewise for Cc1cncc(-c2cc3c(cn2)cnn3-c2cnc(Cl)c(N3CCC[C@H](N)C3)n2)n1
Output: 10.4 nM

Input: Then Cn1cc(-c2cc3c(cn2)cnn3-c2cccc(N3CCNCC3)n2)cn1 ?
Output: 12.1 nM

Input: Now give it for Cn1ncc(-c2cc3c(cn2)cnn3-c2ccccc2F)c1Cl too.
Output: 2200 nM

Input: Same for Cc1cncc(-c2cc3c(cn2)cnn3-c2cccc(N3CCC4(CNC4)C3)n2)n1
Output: 2.65 nM

Input: Also OC1CN(c2cncc(-c3cc4c(cn3)cnn4-c3cccc(N4CCNCC4)n3)n2)C1 , if possible.
Output: 3.37 nM

Input: Please do the same for Cc1ccc(-n2ncc3cnc(-c4cnn(CC(F)(F)F)c4)cc32)nc1N1CCNC[C@@H](O)C1 (single isomer, unassigned) as well.
Output: 1.54 nM

Input: Likewise for c1cc(N2CCNCC2)nc(-n2ncc3cnc(-c4cncc(N5CCC5)n4)cc32)c1 ?
Output: 1.83 nM

Input: For NC1CN(c2cccc(-n3ncc4cnc(-c5cnn(CC(F)(F)F)c5)cc43)n2)C1 then?
Output: 8.18 nM

Input: Okay, and CCc1cncc(-c2cc3c(cn2)cnn3-c2ccc(Cl)c(N3CCC[C@H](N)C3)n2)c1 ?
Output: 1.03 nM
